List of phenotypically active values.
- Test system: WPMY1-TUBA1B-RELA
- Assay remarks: phenotypically active (imaging signature differs from DMSO and reproducible) at any of 0.3-9 uM (binary (1 = active, 0 = inactive)); higher = active
- Experimental parameters: treatment time: 24 h
Please reply with the number alone, leaving off any unit.

Some solved cases for reference:
[
  {
    "Compound": "COC(=O)C1=C(C)NC(C)=C(C(=O)OC(C)C)C1c1cccc2nonc12 (centres undefined) [isradipine]",
    "Value reported": 0
  },
  {
    "Compound": "O=C(Nc1ccccc1)c1cc([N+](=O)[O-])ccc1Cl",
    "Value reported": 0
  },
  {
    "Compound": "O=C(NCCN1CCC(n2c(=O)[nH]c3ccccc32)CC1)c1cc2cc(F)ccc2[nH]1",
    "Value reported": 1
  },
  {
    "Compound": "CCN1C(=O)NC(c2ccccc2)C1=O (centres undefined) [ethotoin]",
    "Value reported": 0
  },
  {
    "Compound": "Nc1ccc(N=Nc2ccccc2)c(N)n1 [phenazopyridine]",
    "Value reported": 0
  }
]

What does the data say about its phenotypically active? Entry: CC(C)(Sc1ccc(CCN(CCCCC2CCCCC2)C(=O)NC2CCCCC2)cc1)C(=O)O
0

Can you handle CN1CCC(=C2c3ccccc3CC(=O)c3sccc32)CC1 [ketotifen] next?
1

Can you handle CC1=CC(=O)CC(C)(C)C1(O)/C=C/C(C)=C\C(=O)O (mixture of isomers) [(+/-)-2-cis-4-trans-Abscisic acid] next?
0

Can you handle CC1=NN(c2ccc(C(=O)O)cc2)C(=O)/C1=C\c1ccc(-c2cc(C)c(C)cc2[N+](=O)[O-])o1 next?
0

src = the supplement of paper PMC7411054
